measurement.description: Chemical stability in human bronchoalveolar lavages
Format: in vitro ADME
condition.context: human bronchoalveolar lavage from patients with acute respiratory distress syndrome, peptide 20 μM, 37 °C, 1 h, HPLC-UV (C18); read-out: chemical stability in human bronchoalveolar lavage, percentage at 1 h (measure not given)
Starred links: 1 amine or outer side, 2 acyl side, 3 side chain; linkers in the order of their positions; H or OH if unused. Non-standard residues stand in square brackets, D forms with d. Residues, ends and D or L forms follow the SMILES beside them. X1 = CC1=CC(C)=[N+]2C1=C(c1cccc(-c3[nH]c4ccccc4c3C[C@H](N[*:1])C(=O)[*:2])c1)c1c(C)cc(C)n1[B-]2(F)F
measured.parameter: remaining at 1 h, 20 μM

# molecule, measured.parameter, reading
rows = [
    ("CC1=CC(C)=[N+]2C1=C(c1cccc(-c3[nH]c4ccccc4c3C[C@H](NC(=O)[C@H](CCCCN)NC(=O)[C@H](CCCCN)NC(=O)[C@@H](N)CCCNC(=N)N)C(=O)N[C@@H](Cc3ccccc3)C(=O)N[C@@H](Cc3c[nH]c4ccccc34)C(N)=O)c1)c1c(C)cc(C)n1[B-]2(F)F [compound 5] (H-RKK[X1]FW-NH2)", "remaining at 1 h, 20 μM", "49%"),
    ("CC1=CC(C)=[N+]2C1=C(c1cccc(-c3[nH]c4ccccc4c3C[C@@H]3NC(=O)[C@H](CCCCN)NC(=O)[C@H](CCCCN)NC(=O)[C@H](CCCNC(=N)N)NC(=O)CNC(=O)[C@H](Cc4c[nH]c5ccccc45)NC(=O)[C@H](Cc4ccccc4)NC3=O)c1)c1c(C)cc(C)n1[B-]2(F)F [compound 8] (cyclo(FWGRKK[X1]))", "remaining at 1 h, 20 μM", "99%"),
]

---

measurement.description: Chemical stability in human bronchoalveolar lavages
Format: in vitro ADME
condition.context: human bronchoalveolar lavage from patients with acute respiratory distress syndrome, peptide 20 μM, 37 °C, 3 h, HPLC-UV (C18); read-out: chemical stability in human bronchoalveolar lavage, percentage at 3 h (measure not given)
Starred links: 1 amine or outer side, 2 acyl side, 3 side chain; linkers in the order of their positions; H or OH if unused. Non-standard residues stand in square brackets, D forms with d. Residues, ends and D or L forms follow the SMILES beside them. X1 = CC1=CC(C)=[N+]2C1=C(c1cccc(-c3[nH]c4ccccc4c3C[C@H](N[*:1])C(=O)[*:2])c1)c1c(C)cc(C)n1[B-]2(F)F
measured.parameter: remaining at 3 h, 20 μM (%)

# compound, measured.parameter, unit.label, reading
data = [
    ("CC1=CC(C)=[N+]2C1=C(c1cccc(-c3[nH]c4ccccc4c3C[C@H](NC(=O)[C@H](CCCCN)NC(=O)[C@H](CCCCN)NC(=O)[C@@H](N)CCCNC(=N)N)C(=O)N[C@@H](Cc3ccccc3)C(=O)N[C@@H](Cc3c[nH]c4ccccc34)C(N)=O)c1)c1c(C)cc(C)n1[B-]2(F)F [compound 5] (H-RKK[X1]FW-NH2)", "remaining at 3 h, 20 μM", "%", 2),
    ("CC1=CC(C)=[N+]2C1=C(c1cccc(-c3[nH]c4ccccc4c3C[C@@H]3NC(=O)[C@H](CCCCN)NC(=O)[C@H](CCCCN)NC(=O)[C@H](CCCNC(=N)N)NC(=O)CNC(=O)[C@H](Cc4c[nH]c5ccccc45)NC(=O)[C@H](Cc4ccccc4)NC3=O)c1)c1c(C)cc(C)n1[B-]2(F)F [compound 8] (cyclo(FWGRKK[X1]))", "remaining at 3 h, 20 μM", "%", 99),
]
